Test system: EKVX
TEST_METHOD_NOTES: NCI tumour cell line growth inhibition, 48 h
Calls of active or inactive are those of the source. No stated cut-off is given here; in the data, active = GI50 up to about 1.1 µM and inactive = higher.
GI50 values for the compounds below.
OBSERVATION_TYPE: GI50

[[record]]
compound = "CCc1ccccc1NC(=O)C(=O)C(C#N)c1ccccc1Cl (stereo unspecified)"
data_value = "> 100 µM (inactive)"

[[record]]
compound = "Cc1nc(Nc2ccccc2)sc1C(=O)CC(=O)C(=O)NC12CC3CC(CC(C3)C1)C2"
data_value = "7.21 µM (inactive)"

[[record]]
compound = "C[C@H](CCCOS(C)(=O)=O)[C@H]1CC[C@H]2[C@@H]3CC[C@@H]4C[C@H](OS(C)(=O)=O)CC[C@]4(C)[C@H]3CC[C@]12C"
data_value = "28.2 µM (inactive)"

[[record]]
compound = "CCS(=O)(=O)CCn1c(=O)c2c(ncn2C)n(C)c1=O"
data_value = "> 100 µM (inactive)"

[[record]]
compound = "CCc1nc(N)nc(N)c1-c1ccc2c(c1)nnn2CCc1ccccc1"
data_value = "21.8 µM (inactive)"

[[record]]
compound = "CNC(=O)NCCCCC(NC(=O)OCc1ccccc1)C(=O)OCc1ccccc1 (stereo unspecified)"
data_value = "98.9 µM (inactive)"

[[record]]
compound = "Cc1nc2nnc(C)n2c2c1C(=O)Nc1ccccc1N2"
data_value = "> 100 µM (inactive)"

[[record]]
compound = "COc1ccc(-c2cc3[nH]nc(N)c3c(=O)o2)cc1"
data_value = "14 µM (inactive)"

[[record]]
compound = "COc1ccc(C(NS(=O)(=O)c2ccc(C)cc2)c2c(C(CBr)OC)c3ccccc3n2S(=O)(=O)c2ccccc2)cc1OC (stereo unspecified)"
data_value = "> 100 µM (inactive)"

[[record]]
compound = "OCCN(CCO)c1ncnc2c1sc(=S)n2-c1ccccc1"
data_value = "> 100 µM (inactive)"

[[record]]
compound = "CO/N=C(/C(=O)OC)c1ccccc1COc1cccc(C(F)(F)F)c1"
data_value = "7.62 µM (inactive)"

[[record]]
compound = "Cc1c(C(=O)/C=C/c2ccccc2[N+](=O)[O-])[n+]([O-])c2ccccc2[n+]1[O-]"
data_value = "14.4 µM (inactive)"

[[record]]
compound = "COc1cc(C[S+]([O-])c2ccc(O)cc2)cc(OC)c1OC (stereo unspecified)"
data_value = "> 100 µM (inactive)"

[[record]]
compound = "O=C(N/C(=C\\c1ccc(/C=C(\\NC(=O)c2ccccc2)c2nc3cc([N+](=O)[O-])ccc3[nH]2)cc1)c1nc2cc([N+](=O)[O-])ccc2[nH]1)c1ccccc1"
data_value = "32.9 µM (inactive)"

[[record]]
compound = "CCN(CC)c1nc(N(C)C)c2ccccc2n1"
data_value = "10.3 µM (inactive)"

[[record]]
compound = "CC1=NN(c2ccc(S(=O)(=O)O)cc2)C2(C1)SCC(=O)N2c1nc2ccccc2s1 (stereo unspecified)"
data_value = "> 100 µM (inactive)"

[[record]]
compound = "COC(=O)[C@@H]1C[C@H]2[C@H](c3ccccc3Br)[C@@H](OC(C)=O)[C@@H](OCc3ccccc3)ON2O1"
data_value = "> 100 µM (inactive)"

[[record]]
compound = "C[C@]12CC[C@H]3[C@@H](CC=C4C[C@@H](O)CC[C@@]43C)[C@@H]1C/C(=C\\c1cccnc1)[C@@H]2O"
data_value = "3.97 µM (inactive)"

[[record]]
compound = "CN(C)c1n2c3cc([N+](=O)[O-])ccc3[n+]3c(N(C)C)n4ccccc4c3c2c2cccc[n+]12.[O-][Cl+3]([O-])([O-])[O-].[O-][Cl+3]([O-])([O-])[O-]"
data_value = "> 100 µM (inactive)"

[[record]]
compound = "CC(C)=CCCC(C)CCOS(=O)C(F)(F)F (stereo unspecified)"
data_value = "10.4 µM (inactive)"

[[record]]
compound = "CCOC(=O)c1nc(SC)sc1NC(=O)c1ccc(OC)cc1"
data_value = "> 100 µM (inactive)"

[[record]]
compound = "O=C1CC2(CCC(O)(c3cccs3)C(C(=O)c3cccs3)C2)C(=O)c2ccccc2N1 (stereo unspecified)"
data_value = "> 100 µM (inactive)"

[[record]]
compound = "CC(=O)Nc1oc(C)c(C)c1S(=O)(=O)c1ccc(Cl)cc1"
data_value = "39.4 µM (inactive)"

[[record]]
compound = "O=C(Cc1nc2ccc([N+](=O)[O-])cc2nc1O)C(=O)Nc1ccccc1[N+](=O)[O-]"
data_value = "> 100 µM (inactive)"

[[record]]
compound = "CSc1nsc(-c2ccccc2)[s+]1.[O-][Cl+3]([O-])([O-])[O-]"
data_value = "> 100 µM (inactive)"

[[record]]
compound = "C1CSC(Sc2nc(SC3=NCCS3)nc(SC3=NCCS3)n2)=N1"
data_value = "> 100 µM (inactive)"

